// reported % Inhibition of Gli1 reporter, Conditioned Media N = 1, 20 µg/ml for each item listed
# system_tested: Shh-N in conditioned medium (human, UniProt Q15465 24-197, N-terminal palmitoyl modification; lacks the C-terminal cholesterol moiety)
# experiment_summary: cell-based or functional assay
measured_attribute: % Inhibition of Gli1 reporter, Conditioned Media N = 1, 20 µg/ml (%)

{"columns": ["binder", "endpoint_result"],
 "data": [
  ["1G1 (antibody, V domains shown, fully human XenoMouse hybridoma antibody; also called MAb 1G1) VH: EVQLVESGGGLVKPGGSLRLSCAASGFTFSSYSMNWVRQAPGKGLEWVSSFSSSSSYIYYADSVKGRFTISRDNAKNSLYLQMNSLRAEDTAVYYCARDRGDYVDYYYGMDVWGQGTTVTVSS VL: SYELTQPPSVSVSPGQTASITCSGDKLDYKYICWYQQKPGQSPVLVIYQDIKRPSGIPERFSGSNSGNTATLTISGTQAMDEADYYCQAWDSNTPLVFGGGTKLTVL", 50],
  ["1G12 (antibody, V domains shown, fully human XenoMouse hybridoma antibody; tested as hybridoma supernatant and as purified antibody; also called MAb 1G12) VH: QVQLVESGGGVVQPGRSLRLSCAASGFTFSTYGMHWVRQAPGKGLEWVAVIWYDGSNKYYADSVNGRFTISRDNSKNTLYLQMNSLRGEDTAVYYCARDLYYYGSGSPFDYWGQGTLVTVSS VL: EIVMTQSPATLSVSPGERVTLSCRASQSVSSNLAWYQQKPGQAPRLLIYGVSIRATGIPARFSGSGSGTEFTLTISSLQSEDFAVYYCQQYDNWPRPGFGGGTKVEIK", 23],
  ["1A5 (antibody, V domains shown, fully human XenoMouse hybridoma antibody; tested as hybridoma supernatant and as purified antibody; also called MAb 1A5) VH: EVQVVESGGDLIQPGGSLRLSCVASGFTVSSNYMNWVRQAPGKGLEWVSVIYSGGNTYYADSVKGRFTISRDNSKNTLYLQMNSLRAEDTAVYYCARDSSVVVGLGYFDLWGRGTLVTVSS VL: SYELTQPPSVSVSPGQTASITCSGDKLGANYASWYQQKPGQSPVLVIFQDTKRPSGIPERFSGSNSGNTATLTISGTQAMDEADYYCQAWDFSTVIFGGGTKLTVL", 35],
  ["6D7 (antibody, V domains shown, fully human XenoMouse hybridoma antibody; also called MAb 6D7) VH: QVQLQESGPGLVKPSQTLSLTCTVSGGSINSGGFYWSWIRQHPGKNLEWIGSIYYSGNTYYNPSLKSRVTISVDTSKNQFSLKLTSVTAADTAVYYCARGNDSGDYDWYFDLWGRGTLVTVSS VL: SYELTQPPSVSVSPGQTASITCSGEKLGYKYVCWYQQKPGQSPVLVIFHDNKRPSGIPERFSGSNSGNTATLTISGAQAMDEADYYCQAGDSSAVFGGGTKLTVL", 89],
  ["1H10 (antibody, V domains shown, fully human XenoMouse hybridoma antibody; tested as hybridoma supernatant and as purified antibody; also called MAb 1H10) VH: QVQLVESGGGVVQPGRSLRLSCAASGFTFSSYGMHWVRQAPGKGLEWVAVIWNDGSNEYYADSVKGRFTISRDNSKNTLYLQMNSLRAEDTAVYYCARDLYYYGSGSPFDDWGQGTLVTVSS VL: EIVMTQSPGTLSVSPGERATLSCRASQSVGSNLAWYQQKPGQAPRLLIFGVSIRATGVPARFSGSGSGTEFTLTISSLQSEDFAVYYCQQYNDWPRPGFGGGTKVEIK", 48]
]}
